Value source: the kinase profiling compilation of Christmann-Franck et al. (2016)

# maps each entry to its kinase still bound, per cent of control
molecular target: RIPK4 (human); assay: KINOMEscan competition binding; conditions: compound 10.0 µM
Please reply with the bare figure in % and do not write the unit itself.

In the examples that follow, each entry is paired with its recorded kinase still bound, per cent of control.
* CCC(=O)N1CCN(c2ccc(-n3c(=O)ccc4cnc5ccc(-c6cnc7ccccc7c6)cc5c43)cc2C(F)(F)F)CC1 | 100
* COc1ccc(-c2ccc3c(N4CCOCC4)nc(N4C[C@@H](C)O[C@@H](C)C4)nc3n2)cc1CO | 71
* CC(C)n1nc(-c2cc3cc(O)ccc3[nH]2)c2c(N)ncnc21 | 6.3

Ask: Record request: kinase still bound, per cent of control value, item `COC(=O)Nc1ccc(-c2nc(N3CCOCC3)c3cnn(C4CCN(C(=O)OC)CC4)c3n2)cc1`
Reply: 90

###

target: FGFR4 (human) (UniProt P22455); test: KINOMEscan competition binding; settings: compound 10.0 µM
Sequence (P22455 whole entry, looked up): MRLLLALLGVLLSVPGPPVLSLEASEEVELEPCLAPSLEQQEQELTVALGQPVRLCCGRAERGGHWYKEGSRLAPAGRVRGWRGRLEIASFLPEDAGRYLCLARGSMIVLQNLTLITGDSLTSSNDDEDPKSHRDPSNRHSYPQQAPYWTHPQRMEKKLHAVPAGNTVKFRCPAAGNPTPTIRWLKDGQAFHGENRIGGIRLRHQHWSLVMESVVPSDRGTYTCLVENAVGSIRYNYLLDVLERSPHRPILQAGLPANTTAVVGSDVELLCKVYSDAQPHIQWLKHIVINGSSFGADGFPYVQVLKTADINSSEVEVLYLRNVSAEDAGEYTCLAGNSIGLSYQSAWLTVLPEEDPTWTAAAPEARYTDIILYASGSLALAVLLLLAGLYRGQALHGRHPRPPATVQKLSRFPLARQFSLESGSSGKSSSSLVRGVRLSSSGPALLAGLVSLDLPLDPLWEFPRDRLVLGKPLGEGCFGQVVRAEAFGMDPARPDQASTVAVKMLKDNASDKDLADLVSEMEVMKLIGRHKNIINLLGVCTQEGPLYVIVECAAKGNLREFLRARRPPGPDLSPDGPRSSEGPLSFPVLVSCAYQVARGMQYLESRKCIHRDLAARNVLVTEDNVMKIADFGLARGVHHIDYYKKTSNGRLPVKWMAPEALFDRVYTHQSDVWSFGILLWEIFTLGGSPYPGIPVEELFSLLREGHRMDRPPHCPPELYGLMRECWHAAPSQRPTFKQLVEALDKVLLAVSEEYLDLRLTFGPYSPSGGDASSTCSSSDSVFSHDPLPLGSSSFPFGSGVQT
Reported metric: kinase still bound, per cent of control (%)
Please reply with the bare figure in % and do not write the unit itself.

In the examples that follow, each entry is paired with its recorded kinase still bound, per cent of control.
- COc1ccc(-c2ccc3c(N4CCOCC4)nc(N4C[C@@H](C)O[C@@H](C)C4)nc3n2)cc1CO: 100
- COC(=O)Nc1ccc(-c2nc(N3CCOCC3)c3cnn(C4CCN(C(=O)OC)CC4)c3n2)cc1: 100
- CCC(=O)N1CCN(c2ccc(-n3c(=O)ccc4cnc5ccc(-c6cnc7ccccc7c6)cc5c43)cc2C(F)(F)F)CC1: 21

Turning now to a further record.
Ask: Record request: kinase still bound, per cent of control value, item `CC(C)n1nc(-c2cc3cc(O)ccc3[nH]2)c2c(N)ncnc21`
Reply: 12

###

target: NTRK1 (human) (UniProt P04629); assay: KINOMEscan competition binding; conditions: compound 10.0 µM
Sequence (P04629 whole entry, looked up): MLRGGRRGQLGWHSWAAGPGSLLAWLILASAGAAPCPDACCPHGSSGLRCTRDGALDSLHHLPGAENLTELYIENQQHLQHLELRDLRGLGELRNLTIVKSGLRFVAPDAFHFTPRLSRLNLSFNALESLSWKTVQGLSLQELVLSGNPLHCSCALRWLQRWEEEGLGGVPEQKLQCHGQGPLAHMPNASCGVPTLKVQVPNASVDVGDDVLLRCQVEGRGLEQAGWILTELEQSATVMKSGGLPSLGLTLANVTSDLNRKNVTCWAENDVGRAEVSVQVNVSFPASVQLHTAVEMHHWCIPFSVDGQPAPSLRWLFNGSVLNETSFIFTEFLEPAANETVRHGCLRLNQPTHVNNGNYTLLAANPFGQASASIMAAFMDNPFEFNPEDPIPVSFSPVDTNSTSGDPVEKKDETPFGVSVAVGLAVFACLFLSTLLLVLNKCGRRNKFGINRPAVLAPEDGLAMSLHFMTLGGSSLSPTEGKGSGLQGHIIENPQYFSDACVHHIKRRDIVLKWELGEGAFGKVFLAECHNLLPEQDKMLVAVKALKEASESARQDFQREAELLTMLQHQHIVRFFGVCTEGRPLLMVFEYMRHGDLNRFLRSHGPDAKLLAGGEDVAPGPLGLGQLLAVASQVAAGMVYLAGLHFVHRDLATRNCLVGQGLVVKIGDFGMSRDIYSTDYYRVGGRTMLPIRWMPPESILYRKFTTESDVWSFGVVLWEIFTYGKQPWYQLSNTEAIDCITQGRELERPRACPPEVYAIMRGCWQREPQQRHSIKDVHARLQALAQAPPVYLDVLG
Reported metric: kinase still bound, per cent of control (%)
Please reply with the bare figure in % and do not write the unit itself.

Ask: Record request: kinase still bound, per cent of control value, item `CCC(=O)N1CCN(c2ccc(-n3c(=O)ccc4cnc5ccc(-c6cnc7ccccc7c6)cc5c43)cc2C(F)(F)F)CC1`
Reply: 64

Ask: Record request: kinase still bound, per cent of control value, item `CC(C)n1nc(-c2cc3cc(O)ccc3[nH]2)c2c(N)ncnc21`
Reply: 46

Ask: Record request: kinase still bound, per cent of control value, item `COC(=O)Nc1ccc(-c2nc(N3CCOCC3)c3cnn(C4CCN(C(=O)OC)CC4)c3n2)cc1`
Reply: 71

Ask: Record request: kinase still bound, per cent of control value, item `COc1ccc(-c2ccc3c(N4CCOCC4)nc(N4C[C@@H](C)O[C@@H](C)C4)nc3n2)cc1CO`
Reply: 72

###

# maps each entry to its per cent of control
biological target: FLT1 (human); conditions: compound 1.0 µM
Please reply with the bare figure in % and do not write the unit itself.

In the examples that follow, each entry is paired with its recorded per cent of control.
• COC(=O)Nc1ccc(-c2nc(N3CCOCC3)c3cnn(C4CCN(C(=O)OC)CC4)c3n2)cc1 = 100
• CC(C)n1nc(-c2cc3cc(O)ccc3[nH]2)c2c(N)ncnc21 = 11
• CCC(=O)N1CCN(c2ccc(-n3c(=O)ccc4cnc5ccc(-c6cnc7ccccc7c6)cc5c43)cc2C(F)(F)F)CC1 = 108

Ask: Record request: per cent of control value, item `COc1ccc(-c2ccc3c(N4CCOCC4)nc(N4C[C@@H](C)O[C@@H](C)C4)nc3n2)cc1CO`
Reply: 92
